- Substrate: O=C(O)C(=O)C[C@@H](O)CO
- protocol-description: purified protein, by the assay type
- Design: coupled assay with PpKGSADH, NADH formation at 340 nm, Michaelis-Menten fit, 25 °C, pH 7.5
- run-conditions: pH 7.5; 25.0 °C
metric: kcat
Output should be the measured figure followed by the unit it is expressed in.

Challenge: Given the protein HsD-KdpD (Herbaspirillum seropedicae SmR1) (protein, C-terminal His6 tag (kept), pET vector, E. coli BL21(DE3), HisTrap purified) MAHTFSLQAHLPEDHAQATLIGRIWQPGVGPVLVRIDADGAYDLTLIAATSSELLELDNPAAAVRSATNMTRIATLQELLDNADAAGRDTSRPWLLAPIDLQAVKASGVTFVASMLERVIEEQARGDAGKAESVRKAITAVIGDNLSSVVPGSPEAARLKEVLLDQGVWSQYLEVGIGPDAEIFTKAQPMSSVGLGDEVGIHPKSAWNNPEPEIVLAINSRGKVVGATLGNDVNLRDFEGRSALLLGKAKDNNASCAVGPFIRLFDANFSIDDVRRAELTMRVDGTEGFTLKGSSSMSMISRDPLQLVEHAIGPNHQYPDGLVLFLGTMFAPTQDRFGPGQGFTHQVADIVTISTPKLGALVNTVNFSDQTAPWTFGLTALFKNLADRKLI , what is its reported kcat?
Response given: 16.9 s⁻¹

Sourced from paper PMC7374468
